assay: clinical; details: human, in vivo, AUC(0–24h), Day 6
endpoint: AUC(0-t) (ng·h/mL)
Field: numeric (ng·h/mL). Do not append units.

For CCOc1cc2ncc(C#N)c(Nc3ccc(F)c(Cl)c3)c2cc1NC(=O)/C=C/CN(C)C , what is its reported AUC(0-t)? 378

* * *

test: clinical; conditions: human, in vivo, AUC(0–24h), Day 7
endpoint: AUC(0-t) (µg·h/mL)
Field: numeric (µg·h/mL). Do not append units.

For CCOc1cc2ncc(C#N)c(Nc3ccc(F)c(Cl)c3)c2cc1NC(=O)/C=C/CN(C)C [EKB-569] , what is its reported AUC(0-t)? 0.426
